Experiment: inhibitors of triacylglycerol accumulation, primary screen, cell-based, uHTS, fluorescence, H9c2 (AID 651582);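 further: 0% = DMSO wells and 100% = triacsin C control wells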
Conditions: H9c2 cells, Nile Red lipid (TAG) fluorescence, at 12.5 µM, cells loaded with 200 µM oleic acid; stronger effect = higher value
Hit rate of the full screen: of about 230,000 compounds, about 1,500 (0.65%) were called active. For the sample, actives were picked, then their nearest neighbours and some compounds at random.
Would you mind telling me the reported inhibition of each entry?
One number for each entry, in %.

Completed entries (count: 5):
compound	testResult
COC(C[C@@H](O)C[C@H](O)[C@H](C)OCc1ccccc1)OC	-1.79
CCOC(=O)c1cc(-c2sc(NC(=O)c3ccccc3)nc2C)n(Cc2ccccc2)n1	44.7
CC(=O)NC12CC3CC(C1)CC(C(=O)N1CCN(C(=O)c4ccco4)CC1)(C3)C2	-4.34
CNC(=O)c1ccc(NC(=O)c2cccc(C(F)(F)F)c2)cc1	-1.2
COC(C[C@H](O)CC(=O)COCc1ccccc1)OC	53.8

// batch mode: one inhibition value per listed entry
1. COc1cc(NC(=O)c2cc(-c3ccc(F)cc3OC(C)C)n[nH]2)cc(OC)c1OC
2. Cc1[nH]c2ccccc2c1C(=O)C(=O)NCc1nnnn1-c1cccc(F)c1
3. COc1ccc(C(=O)OCC(=O)Nc2cc(C)on2)cc1F
4. O=C(CCl)N(Cc1cccc([N+](=O)[O-])c1)c1cccc(Cl)c1
5. CCS(=O)(=O)c1cc([N+](=O)[O-])c(Sc2ccccc2N)s1

A:
[5.57, -12.5, 7.73, 53.5, 14.6]

// batch mode: one inhibition value per listed entry
1. O=C(C1Cc2ccccc2CN1C(=O)c1ccco1)N1CCN(c2ccccc2)CC1 (configuration not stated)
2. Nc1ccccc1Sc1ccc(C(F)(F)F)cc1[N+](=O)[O-]
3. Cc1cccc(-c2cnc(C(O)c3ccc4ccccc4c3)[nH]2)c1 (configuration not stated)
4. CC(=O)Nc1cccc(-c2ccnc3c2CC(C)(C(=O)NCc2ccco2)O3)c1 (configuration not stated)
5. COc1ccc(CNC(=O)CNC(=O)c2sc3ccccc3c2Cl)cc1OC
6. Cc1cccc(NC(=O)c2cccc(C(F)(F)F)c2)c1
7. O=C(Nc1nc(-c2ccncc2)cs1)C1COc2ccccc2O1 (configuration not stated)

A:
25.4
-15.4
-12.6
43.4
10.6
-0.148
50.4

// batch mode: one inhibition value per listed entry
1. Cc1ccc(-c2nc3ccccc3[nH]2)cc1NC(=O)c1sc2ccccc2c1Cl
2. CCN(CC)C(=O)C1=C(C)N(Cc2ccccc2)C(=O)C(CC(=O)NC(c2ccccc2)c2ccccc2)C1 (configuration not stated)
3. CCN(CC)C(=O)CN(c1cccc([N+](=O)[O-])c1)S(=O)(=O)c1ccccc1

A:
1: 58.3; 2: 22.4; 3: 5.09

// batch mode: one inhibition value per listed entry
1. Cc1ccc(S(=O)(=O)N(Cc2cccc([N+](=O)[O-])c2)C(=O)N2CCN(C)CC2)cc1
2. CCN(CC)c1ncnc2c1ncn2[C@H]1CN(Cc2cccs2)C[C@@H](CO)O1

A:
1. 6.71
2. -11.2
